# TARGET_UNDER_TEST: HLA-A*31:01
# ASSAY_DETAILS: IEDB peptide-MHC binding, purified MHC/competitive/radioactivity; bounds were set here for any values at or beyond the usual limits of such assays
# EXPERIMENTAL_CONDITIONS: source organism: Hepatitis B virus
Quick rule for you: IC50 under 700 nM gets yes (1), anything else gets no (0).

Observe how each entry below is paired with its result.
INSERT INTO measurements (residue_sequence, target_under_test, class_assignment) VALUES
  ('LVPFVQWFV', 'HLA-A*31:01', 'no (0)'),
  ('FIIFLFILL', 'HLA-A*31:01', 'yes (1)'),
  ('MMWYWGPSL', 'HLA-A*31:01', 'yes (1)'),
  ('FLFILLLCLI', 'HLA-A*31:01', 'yes (1)'),
  ('WMMWYWGPSL', 'HLA-A*31:01', 'no (0)'),
  ('FLFILLLCL', 'HLA-A*31:01', 'no (0)'),
  ('KQYLNLYPV', 'HLA-A*31:01', 'yes (1)'),
  ('ILLLCLIFL', 'HLA-A*31:01', 'no (0)');

Let us examine a further case.
query: Hello, I'm reviewing records and need to know if IC50 of CLIFLLVLL is below 700 nM. Could you check?
result: no (0)

These measurements were taken from the Immune Epitope Database (IEDB).
